Source of measurements: paper PMC12416549

Biological target: T1, TNFR1 (Homo sapiens, UniProt P19438)
T1 chain: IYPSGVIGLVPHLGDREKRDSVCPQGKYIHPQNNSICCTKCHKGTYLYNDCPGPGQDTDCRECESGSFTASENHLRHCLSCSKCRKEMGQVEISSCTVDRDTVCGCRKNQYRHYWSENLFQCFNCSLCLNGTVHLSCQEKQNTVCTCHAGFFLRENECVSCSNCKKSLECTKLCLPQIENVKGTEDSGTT
Assay: yeast display SC50
measure: apparent Kd (screen) (nM)

[a] S53C (designed binder) MTLQELLREEALRRAEAEAFRYALELLAEKFPEQKEYLLDLAEEIESQIRSLCGVDVEDVRKFLDKEWAWVKELLAEHPAELAEVEAARAARLAELRAEVEAKVAA
[b] Q34T (designed binder) MTLQELLREEALRRAEAEAFRYALELLAEKFPETKEYLLDLAEEIESQIRSLSGVDVEDVRKFLDKEWAWVKELLAEHPAELAEVEAARAARLAELRAEVEAKVAA
# input Pick one: a or b . Which has the bigger apparent Kd (screen) number? Your choice should be expressed through its label.
# output a
(a: 24.4 nM, b: 0.539 nM)
